Target: TJP2_1, Q9UDY2
Sequence (Q9UDY2 24-128): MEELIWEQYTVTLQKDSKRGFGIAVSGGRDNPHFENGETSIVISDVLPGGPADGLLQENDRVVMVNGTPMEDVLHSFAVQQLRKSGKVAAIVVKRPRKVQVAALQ
Assay: holdup assay
Parameters: key: below the threshold = too weak to quantify, mostly under pKd 3.1 to 4
Settings: plain residues with an end cap or a label only (N-terminal biotin on a linker: ado-ado)
Reported Endpoint: pKd

Below, each entry is followed by its recorded pKd result.
| Binder | Reported Endpoint | Assay Result |
| --- | --- | --- |
| DLLGGGSDSI [TNRC6B, Q9UPQ9] | pKd | below the threshold |
| HDDYFYHDEL [RCN2, Q14257] | pKd | below the threshold |
| SAGADSETHC [SLCO1B1, Q9Y6L6] | pKd | below the threshold |
| THHRKIHTRV [ZNF599, Q96NL3] | pKd | 4.6 |
| GTMFLRETSL [GUCY1A2, P33402] | pKd | below the threshold |
| AKADAQESRL [PLCB2, Q00722] | pKd | below the threshold |
| RDYTQSSSSL [GRM5, P41594] | pKd | below the threshold |
| STYCDYTIEI [FAM71C, Q8NEG0] | pKd | below the threshold |
| NISARRFTLC [FAM167B, Q9BTA0] | pKd | 4.76 |
| FVFESRKEIL [TBPL1, P62380] | pKd | below the threshold |

Query: Identify pKd associated with the binder LVEEEEPMNL [HDAC7, Q8WUI4]
Reply: below the threshold

Query: Identify pKd associated with the binder EFKQTSSFLV [JAM1, Q9Y624]
Reply: below the threshold

Query: Identify pKd associated with the binder SGDGKTSVWI [GJC1, P36383]
Reply: 4.82

Query: Identify pKd associated with the binder ATKDKKITTV [EXOC4, Q96A65]
Reply: 3.87

Query: Identify pKd associated with the binder KKTPVSRSHL [SLC22A3, O75751]
Reply: below the threshold

Query: Identify pKd associated with the binder PSVYSRSQYV [CLDN8, P56748]
Reply: 4.87
